Values were extracted from ChEMBL document CHEMBL4334459.

Test system: HepG2
Assay: Antiproliferative activity against human HepG2 cells assessed as reduction in cell viability after 48 hrs by MTT assay
Type: functional, cell-based
Conditions: HepG2, 48 h
attribute_measured: IC50 (µM)

                                   molecule  attribute_measured  measured
0  COc1c(O)cc2oc3cc(O)c(CC=C(C)C)c(O)c3c(=O)c2c1CC=C(C)C [MANGOSTIN]                IC50      18.6
